- Assay context: buffer; pH 7.4; 200.0 µM

| Structure string | solubility kinetic |
| --- | --- |
| COC(=O)NC(=C(Cl)Cl)P(=O)(c1ccccc1)c1ccccc1 | > 55.5 µg/mL |
| COc1cc(/C=C/c2[nH]c(=O)[nH]c(=O)c2[N+](=O)[O-])cc(OC)c1O | > 50.3 µg/mL |
| Cn1c(=O)c2sccc2n(Cc2ccccc2)c1=O | > 40.8 µg/mL |

====

- Assay context: buffer; pH 7.4; 200.0 µM
Reported solubility kinetic by item:

| Compound | solubility kinetic |
| --- | --- |
| CCN(C(=S)NC(=O)C1CCCC1)C1CCCCC1 | > 0.0424 mg/mL |
| CCOC(=O)/C(O)=C(\C#N)c1nc2ccccc2[nH]1 | > 0.0386 mg/mL |
| O=c1c2ccccc2[nH]c2ccc(O)cc12 | > 0.0317 mg/mL |
| COc1ccc(NC(=O)C2C3C=CC(C3)C2C(=O)O)cc1 (stereo not drawn) | > 0.0431 mg/mL |
| CC12C(=O)N(c3ccccc3)C(=O)C1C(c1ccccc1)N1CCCN12 (stereo not drawn) | > 0.0521 mg/mL |
| NC(=Nc1ccccc1)c1ccccc1 | > 0.0294 mg/mL |
| CC(C)=C(NC(=O)c1ccccc1)C(N)=O | > 0.0327 mg/mL |
| COc1cccc(NC(=O)CN2C(=O)NC(Cc3c[nH]c4ccccc34)C2=O)c1 (stereo not drawn) | 0.022 mg/mL |
| O=C(NC1CC1)C1CCCN(C(=O)NC2CCCCC2)C1 (stereo not drawn) | > 0.044 mg/mL |
| Clc1nccc(NCc2ccccc2)n1 | > 0.033 mg/mL |
| Cc1ccc2cc(NC(=O)c3ccc(C(C)(C)C)cc3)ccc2n1 | < 0.0003 mg/mL |
| COc1cc2nc(Cl)nc(NCCO)c2cc1OC | 0.0247 mg/mL |
| COC(=O)CSc1[nH]c2ccc(F)cc2c1[N+](=O)[O-] | 0.0418 mg/mL |
| Cc1cc(NC(=O)CSc2ccnc(=O)[nH]2)no1 | > 0.0399 mg/mL |
| NC(N)=NC1=NC(=O)C(Cc2ccccc2)S1 (stereo not drawn) | > 0.0372 mg/mL |
| CC1CC(C)CN(C(=O)CNS(=O)(=O)c2cccs2)C1 (stereo not drawn) | 0.0176 mg/mL |
| CCOC(=O)CN=C/C(C(C)=O)=C(/C)O | > 0.032 mg/mL |
| S=C(NCc1ccncc1)Nc1ccc(Br)cc1Cl | 0.0409 mg/mL |
| COc1cccc(CNc2nc3ccccc3n2C)c1O | 0.0062 mg/mL |
| c1ccc(C2CCC(N3CCN(c4ccccc4)CC3)CC2)cc1 (stereo not drawn) | 0.0013 mg/mL |
| O=C(NCc1ccccc1F)c1cc(=O)[nH]c2ccccc12 | 0.0049 mg/mL |
| Cc1nc(C)c(C(=O)OCC(=O)NCc2ccccc2)s1 | > 0.0457 mg/mL |
| COc1cc2c(cc1OC)CN(CC(O)c1ccccc1)CC2 (stereo not drawn) | 0.0443 mg/mL |
| CN(Cc1ccccc1)C(=O)COc1ccc(Br)cc1Cl | 0.0126 mg/mL |
| CCC(=O)Nc1ccc2c(c1)ncn2C | > 0.0305 mg/mL |
| O=C(Nc1ccccc1)Nc1ccc2ccccc2n1 | < 0.0002 mg/mL |
| COc1ccc(NC(=O)[C@@H](NS(=O)(=O)c2cccc(Cl)c2)C(C)C)cc1S(=O)(=O)N1CCOCC1 | > 0.0819 mg/mL |
| COc1cc(/C(C)=N/NC(=O)CSc2nnc(C)s2)ccc1O | > 0.0529 mg/mL |
